B1: Lysine-specific demethylase 2B, residues 656 to 722; numbered along this chain, Q8NHM5 (parent)
chain: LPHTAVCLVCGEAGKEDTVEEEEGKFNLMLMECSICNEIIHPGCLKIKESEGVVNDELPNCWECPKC

variants of: B1; assay: abundance fitness (aPCA) (normalised: wild type 0, dead -1); higher = more abundant; growth selection in yeast, the domain comes from the species named; conditions: Homo sapiens

- Mut: "M29G"
  abundance fitness: -0.247
- Mut: "G14Q"
  abundance fitness: -0.009
- Mut: "G43Q"
  abundance fitness: -0.383
- Mut: "E21Y"
  abundance fitness: -0.035
- Mut: "P59W"
  abundance fitness: -0.319
- Mut: "G24F"
  abundance fitness: 0.006
- Mut: "P2T"
  abundance fitness: 0.844
- Mut: "V54A"
  abundance fitness: 0.089
- Mut: "C10T"
  abundance fitness: -0.244
- Mut: "E23P"
  abundance fitness: -0.342
- Mut: "C10H"
  abundance fitness: -0.828
- Mut: "C36V"
  abundance fitness: -0.921
- Mut: "I35C"
  abundance fitness: -0.119
- Mut: "T18Y"
  abundance fitness: -0.427
- Mut: "S34R"
  abundance fitness: -0.229
- Mut: "P42R"
  abundance fitness: -0.134
- Mut: "L8E"
  abundance fitness: -0.584
- Mut: "K66C"
  abundance fitness: -0.819
- Mut: "M29S"
  abundance fitness: 0.039
- Mut: "C67P"
  abundance fitness: -0.867
- Mut: "N37S"
  abundance fitness: 0.057
- Mut: "L1A"
  abundance fitness: -0.175
- Mut: "N27P"
  abundance fitness: -0.038
- Mut: "K66S"
  abundance fitness: -0.284
- Mut: "C36F"
  abundance fitness: -1.21
- Mut: "C7T"
  abundance fitness: -0.491
- Mut: "P2N"
  abundance fitness: 0.758
- Mut: "E16R"
  abundance fitness: -0.148
- Mut: "E21R"
  abundance fitness: 0.034
- Mut: "T4V"
  abundance fitness: -0.947
- Mut: "E23D"
  abundance fitness: -0.016
- Mut: "E32V"
  abundance fitness: -0.287
- Mut: "A5C"
  abundance fitness: 0.07
- Mut: "C33Y"
  abundance fitness: -0.621
- Mut: "L28Y"
  abundance fitness: -0.169
- Mut: "C33L"
  abundance fitness: -0.765
- Mut: "C33Q"
  abundance fitness: -0.581
- Mut: "G43A"
  abundance fitness: 0.085
- Mut: "L28T"
  abundance fitness: 0.241
- Mut: "W62R"
  abundance fitness: -0.574
- Mut: "E21P"
  abundance fitness: 0.033
- Mut: "K25V"
  abundance fitness: -0.525
- Mut: "L28C"
  abundance fitness: -0.16
- Mut: "E22T"
  abundance fitness: 0.171
- Mut: "T18G"
  abundance fitness: -0.399
- Mut: "E57Y"
  abundance fitness: -0.179
